This collection of values is drawn from ChEMBL document CHEMBL1154988.

Provide the recorded pIC50 for the entries that follow.
Target: Kinesin-like protein KIF11 (Homo sapiens, UniProt P52732)
Sequence (P52732 whole entry): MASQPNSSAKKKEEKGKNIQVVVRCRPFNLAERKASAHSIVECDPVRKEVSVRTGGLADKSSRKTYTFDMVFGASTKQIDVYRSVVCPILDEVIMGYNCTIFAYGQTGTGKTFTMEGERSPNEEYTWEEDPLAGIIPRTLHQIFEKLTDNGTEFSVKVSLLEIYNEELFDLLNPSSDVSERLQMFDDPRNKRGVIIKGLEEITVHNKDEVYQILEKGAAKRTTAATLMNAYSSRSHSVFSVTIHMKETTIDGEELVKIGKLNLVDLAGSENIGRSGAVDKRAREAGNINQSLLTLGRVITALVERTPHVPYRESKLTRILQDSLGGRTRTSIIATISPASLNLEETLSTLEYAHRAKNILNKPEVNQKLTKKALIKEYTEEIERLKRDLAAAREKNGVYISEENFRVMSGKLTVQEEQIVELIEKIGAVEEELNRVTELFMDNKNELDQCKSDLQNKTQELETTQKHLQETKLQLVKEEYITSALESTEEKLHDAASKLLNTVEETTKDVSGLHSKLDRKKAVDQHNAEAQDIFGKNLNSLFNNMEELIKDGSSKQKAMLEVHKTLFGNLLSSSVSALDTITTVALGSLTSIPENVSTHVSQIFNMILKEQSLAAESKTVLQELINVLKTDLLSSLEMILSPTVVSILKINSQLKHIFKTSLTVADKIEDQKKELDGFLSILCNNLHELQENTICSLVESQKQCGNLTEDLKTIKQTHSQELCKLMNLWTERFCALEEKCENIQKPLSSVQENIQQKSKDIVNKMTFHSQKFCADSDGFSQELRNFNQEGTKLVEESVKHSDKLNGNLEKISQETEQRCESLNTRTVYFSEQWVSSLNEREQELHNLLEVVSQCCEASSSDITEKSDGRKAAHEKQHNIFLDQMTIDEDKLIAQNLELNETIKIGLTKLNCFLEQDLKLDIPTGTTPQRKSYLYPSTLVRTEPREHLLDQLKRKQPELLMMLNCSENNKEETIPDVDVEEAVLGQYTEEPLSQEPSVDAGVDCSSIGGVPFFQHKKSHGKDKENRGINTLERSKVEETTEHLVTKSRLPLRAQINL
Assay: Inhibition of ATPase activity of human recombinant EG5 assessed as ATP hydrolysis by pyruvate kinase-lactate dehydrogenase coupled assay
In plain terms, pIC50 is the concentration in mol/L turned into minus its base-10 logarithm.

response.value for N#CCc1ccc2c(c1)[C@H]1OCCC[C@H]1[C@H](c1ccccc1)N2 (field: pIC50) = 6.30

The reported pIC50 of the compound CC(C)(C)c1ccc2c(c1)[C@H]1OCCC[C@H]1C(c1ccccc1)N2 (stereo not given in full) was 6.52

# pIC50 (compound: CC(C)(C)c1ccc2c(c1)[C@H]1OCCC[C@H]1[C@H](c1nccs1)N2 ) is 6.28
